system under test: CH505.M11D8gp120/293F
method description: ELISA
For each of the binders below, state its LogAUC.
Returns: the value as a bare number; no unit string appended.

*Q* Name the recorded LogAUC for CH555 (antibody, V domains shown, also called CH235.10) VH: QVQLVQSGATVKKPRASVTLSCRTSGYNFIDYFIHWVRRAPGQRLEVMGYIDPSRGRPDYAPNFRDRVSLYRDTSMSIVYLDLRDLTPDDTAIYYCVRSEGTEGTVLHYDHWGPGTRVTVSP VL: EIVLTQSPDTLSASPGERVTLSCRASQSVGTKVAWYRHVRGQPPRLLIYGASTRAAGIPARFSGGGSGTNFTLIINNFQSEDFAEYLCQQYKSWWTFGQGTKVDNK .
*A* 5.05

*Q* Could you tell me which LogAUC is on file for CH491 (antibody, V domains shown, also called CH235.7; DH491) VH: QVQLVQSGAAVKRPGASVTISCRASGYTFTTYYIHWVRQAPGQGLELMGWINPRGGRTDYSYRFEDRVSMYRDTSMSIVYMDLRNLKSADTAVYYCVRNVGTSGSLLHYDFWGQGSLVTVSS VL: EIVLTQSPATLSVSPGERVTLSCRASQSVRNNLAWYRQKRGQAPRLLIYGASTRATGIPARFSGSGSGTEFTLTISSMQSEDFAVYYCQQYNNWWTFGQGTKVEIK ?
*A* 6.75

*Q* Any idea what LogAUC was measured for CH235 (antibody, V domains shown, also called CH235_4A) VH: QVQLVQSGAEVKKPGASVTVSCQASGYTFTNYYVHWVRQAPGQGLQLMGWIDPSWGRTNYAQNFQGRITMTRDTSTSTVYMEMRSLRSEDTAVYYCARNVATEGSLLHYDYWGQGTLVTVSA VL: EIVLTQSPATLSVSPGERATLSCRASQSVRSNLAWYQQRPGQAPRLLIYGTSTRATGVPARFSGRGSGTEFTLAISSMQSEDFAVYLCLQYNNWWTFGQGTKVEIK ?
*A* 7.59

*Q* # input binder: CH557 (antibody, V domains shown, also called CH235.12; CH557_4A/293i) VH: QVRLAQYGGGVKRLGATMTLSCVASGYTFNDYYIHWVRQAPGQGFELLGYIDPANGRPDYAGALRERLSFYRDKSMETLYMDLRSLRYDDTAMYYCVRNVGTAGSLLHYDHWGSGSPVIVSS VL: EIVLTQSPATLSASPGERVTLTCRASRSVRNNVAWYQHKGGQSPRLLIYDASTRAAGVPARFSGSASGTEFTLAISNLESEDFTVYFCLQYNNWWTFGQGTRVDIK ; wanted: its LogAUC
*A* 7.71
